Listed here are compounds together with their documented viability at 28.5 h, 10 µM.
test: in vitro; conditions: human, hela cells, % viability
The answer is to be given in %; state only the numeric part.

# annotated cases, reported viability at 28.5 h, 10 µM shown
compound="CCc1cc(=O)[nH]c(-c2ccc(N3CCCC3C(=O)N(C)C)nc2)n1 (stereo not drawn)" value_reported=89.2
compound="O=C(CCCOc1ccccc1)NCc1ccc(OC2CCNCC2)cc1 [CBK028427T]" value_reported=92.1
compound=NS(=O)(=O)c1ccc(Nc2ncccc2[N+](=O)[O-])cc1 value_reported=91.6
compound=CC(C)n1c(=O)n(CC(=O)NC2CCCC2)c2cccnc21 value_reported=89.2
compound=CC(=O)Nc1nc2[nH]c(C)c(Cc3ccccc3)c(=O)n2n1 value_reported=89

Q: Quick one: viability at 28.5 h, 10 µM for `NC(=O)c1c(NC(=O)c2cnn3cccnc23)sc2c1CCCC2` ?
A: 87.8

----------
Listed here are compounds together with their documented viability at 28.5 h, 10 µM.
assay: in vitro; details: human, hela cells, % viability
The answer is to be given in %; state only the numeric part.

compound="COc1cccc2cc(C(=O)C3=C(O)C(=O)N(CCN4CCOCC4)C3c3ccc(F)cc3)oc12 (stereo not drawn)" value_reported=93.3
compound=Cc1nnc(NCCO)c2ccccc12 value_reported=112
compound="CCOC(=O)CNC1CCCCC1 [CBK023276C]" value_reported=91

Q: Quick one: viability at 28.5 h, 10 µM for `Cc1nc(CC(=O)N2CCC[C@@H]3[C@H]2CCCCc2ccccc2OCC(=O)N3C)cs1` ?
A: 113

Q: Follow-up item: `Cc1cccc(CCNC(=O)C2CN(C(=O)C3CCN(C)CC3)C2)c1`
A: 98.4

Q: Follow-up item: COc1ccc(NC(=O)N2CCCCC2c2cccnc2)cc1 (stereo not drawn)
A: 102

Q: Follow-up item: `CN1C(=O)COc2ccccc2C/C=C/C[C@H]2CN(C(=O)C3CCC3)CC[C@H]21`
A: 95.1

Q: Follow-up item: CC(C)(C)c1ccccc1NC(=O)N(CCCN)Cc1cc(F)cc(F)c1 [CBK034697C]
A: 82.7

Q: Follow-up item: `O=C(COc1cccnc1)NCc1ccc(-c2csnn2)cc1`
A: 93.1

----------
assay: in vitro; conditions: human, hela cells, % viability
Lab note: compare viability at 28.5 h, 10 µM with 90%, writing yes if less and no if equal or more.

Use the examples below as a reference point.
compound=CN(Cc1ccncc1)C(=O)c1cccc(S(=O)(=O)NCC2CC2)c1 class_assignment=no
compound=CCCCC(=O)Nc1nc(-c2ccc(S(=O)(=O)N3CCOCC3)cc2)cs1 class_assignment=yes
compound=O=C(Cc1ccsc1)N1CCN(c2ncccn2)CC1 class_assignment=no
compound=O=C(OCCc1cccnc1)N1CCSCC1 class_assignment=no
compound=O=C(Cn1c(=O)oc2ccccc21)Nc1ccc(S(=O)(=O)Nc2nccs2)cc1 class_assignment=yes

Q: I'd appreciate it if you could check whether `O=C(CC12CC3CC(CC(C3)C1)C2)NCC(=O)Nc1ccc2[nH]c(=O)[nH]c2c1` has viability at 28.5 h, 10 µM smaller than 90%.
A: yes

Q: Follow-up item: CCOC(=O)C(N)CSC1CC(=O)N(c2ccc(Br)cc2)C1=O (stereo not shown) [CBK017250C]
A: no
